- System Tested: CYP3A4 (Homo sapiens, UniProt P08684)
- Sequence (P08684 whole entry): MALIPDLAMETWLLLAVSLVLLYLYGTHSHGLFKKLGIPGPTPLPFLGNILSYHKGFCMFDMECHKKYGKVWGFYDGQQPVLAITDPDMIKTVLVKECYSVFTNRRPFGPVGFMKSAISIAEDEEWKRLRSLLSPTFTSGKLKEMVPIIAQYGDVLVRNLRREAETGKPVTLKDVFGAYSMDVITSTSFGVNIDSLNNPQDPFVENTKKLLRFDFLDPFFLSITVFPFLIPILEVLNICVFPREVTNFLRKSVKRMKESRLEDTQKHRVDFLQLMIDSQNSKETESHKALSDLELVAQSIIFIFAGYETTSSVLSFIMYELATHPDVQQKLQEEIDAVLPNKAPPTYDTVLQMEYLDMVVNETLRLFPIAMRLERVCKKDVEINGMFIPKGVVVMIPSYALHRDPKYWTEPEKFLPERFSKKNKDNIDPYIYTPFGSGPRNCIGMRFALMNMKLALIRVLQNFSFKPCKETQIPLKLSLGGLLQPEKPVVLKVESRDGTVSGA
- Assay Details: Spectral binding
- Condition Set: no ethanol
Measure Name: Type of spectral binding with CYP3A4

CCC[C@@]1(CCc2ccccc2)CC(O)=C([C@H](CC)c2cccc(NS(=O)(=O)c3ccc(C(F)(F)F)cn3)c2)C(=O)O1 :: type I
CC(C)(C)NC(=O)[C@@H]1C[C@@H]2CCCC[C@@H]2CN1C[C@@H](O)[C@H](Cc1ccccc1)NC(=O)[C@H](CC(N)=O)NC(=O)c1ccc2ccccc2n1 :: type I
COC(=O)N[C@H](C(=O)N[C@@H](Cc1ccccc1)[C@@H](O)CN(Cc1ccc(-c2ccccn2)cc1)NC(=O)[C@@H](NC(=O)OC)C(C)(C)C)C(C)(C)C :: type I
